Cited source for all entries: patent US20090030024A1

Quick reference: chromatographic logP of the listed items.
- protocol summary: logP determination by retention times (calibration with alkan-2-ones)
experimental readout: chromatographic logP

COCCOC(=O)Nc1ccc(Nc2nccc(-c3sc(N)nc3C)n2)cc1 | 1.4
COCc1nc(C)c(-c2ccnc(Nc3ccccc3)n2)s1 | 3.01
Cc1nc(C2CCCCC2)sc1-c1ccnc(Nc2ccc(C(F)(F)F)cc2)n1 | 5.62
COc1cc(Nc2nccc(-c3sc(C)nc3C(F)(F)F)n2)cc(OC)c1OC | 3.02
Cc1nc(C(C)C)sc1-c1ccnc(Nc2ccc(O)cc2)n1 | 2.18
Cc1nc(C2CC2)sc1-c1ccnc(Nc2cccc(C(=O)O)c2)n1 | 2.27
COc1ccc(Nc2nccc(-c3sc(C)nc3C)n2)cc1OC | 2.16
Cc1nc(C(C)C)sc1-c1ccnc(Nc2ccc(N3CCN(C)CC3)cc2)n1 | 1.71
CCc1nc(C)c(-c2ccnc(Nc3cccc(C(C)=O)c3)n2)s1 | 2.7

---

- protocol summary: logP determination by retention times (calibration with alkan-2-ones)
- test context: logP, * HPLC reversed-phase C18, 40° C., mobile phase 0.1% aqueous formic acid and acetonitrile, linear gradient 10% to 95% acetonitrile
experimental readout: chromatographic logP

CC(=O)N(Cc1cccc(N(C(C)=O)c2nccc(-c3sc(C4CC4)nc3C)n2)c1)C(C)=O | 2.39
COC(=O)NCc1cccc(Nc2nccc(-c3sc(SC)nc3C)n2)c1 | 2.16
CCc1nc(C)c(-c2ccnc(Nc3ccc(OC)cc3)n2)s1 | 2.78
CC(=O)Nc1ccc(Nc2nccc(-c3sc(C(C)C)nc3C)n2)cc1 | 2.15
Cc1nc(C)c(-c2ccnc(Nc3ccc(N(C)C)cc3)n2)s1 | 1.41
COc1ccc(Nc2nccc(-c3sc(C)nc3C)n2)cc1Cl | 2.88
COCc1nc(C)c(-c2ccnc(Nc3ccc4c(c3)OCO4)n2)s1 | 2.47
Cc1nc(C)c(-c2ccnc(Nc3ccc(F)c(F)c3)n2)s1 | 2.99
Cc1nc(C(C)C)sc1-c1ccnc(Nc2ccc(CNC(=O)OC(C)(C)C)cc2)n1 | 3.68
COCC(C)Nc1nc(C)c(-c2ccnc(Nc3ccc(NS(C)(=O)=O)cc3)n2)s1 (stereo not drawn) | 1.53
Cc1nc(N2CCOCC2)sc1-c1ccnc(Nc2ccccc2)n1 | 2.25
CSc1nc(C)c(-c2ccnc(Nc3cccc(Cl)c3)n2)s1 | 4.08
COCC(C)Nc1nc(C)c(-c2ccnc(Nc3cccc(N4CCCC4=O)c3)n2)s1 (stereo not drawn) | 1.68
COc1cc(Nc2nccc(-c3sc(SC)nc3C)n2)cc(OC)c1 | 3.39
COCC(C)Nc1nc(C)c(-c2ccnc(Nc3ccc(C(C)=O)cc3)n2)s1 (stereo not drawn) | 1.92
CCc1nc(C)c(-c2ccnc(N(C(C)=O)c3cc(OC)c(OC)c(OC)c3)n2)s1 | 2.19
CC(=O)Nc1ccc(Nc2nccc(-c3sc(NCC4CCCO4)nc3C)n2)cc1 (stereo not drawn) | 1.39
Cc1nc(C2CC2)sc1-c1ccnc(Nc2cccc(Cl)c2)n1 | 3.94
COCC(C)Nc1nc(C)c(-c2ccnc(Nc3cccc(NS(C)(=O)=O)c3)n2)s1 (stereo not drawn) | 1.57
CC(=O)Nc1ccc(Nc2nccc(-c3sc(C4CC4)nc3C)n2)cc1 | 2
COCCNc1nc(C)c(-c2ccnc(Nc3ccc(N4CCCC4=O)cc3)n2)s1 | 1.51
COCCNc1nc(C)c(-c2ccnc(Nc3ccc(F)cc3)n2)s1 | 1.9
COCCNc1nc(C)c(-c2ccnc(Nc3ccc(F)c(C)c3)n2)s1 | 2.04
COC(=O)Nc1ccc(Nc2nccc(-c3sc(N)nc3C)n2)cc1 | 1.31
Cc1nc(NCC2CCCO2)sc1-c1ccnc(Nc2ccc(N3CCCC3=O)cc2)n1 (stereo not drawn) | 1.6
CC(=O)NCc1cccc(Nc2nccc(-c3sc(C4CC4)nc3C)n2)c1 | 1.96
COc1cc(Nc2nccc(-c3sc(C)nc3C(F)(F)F)n2)cc(OC)c1 | 3.41

---

- protocol summary: logP determination by retention times (calibration with alkan-2-ones)
- test context: * HPLC reversed-phase C18, 40° C., mobile phase 0.1% aqueous formic acid and acetonitrile, linear gradient 10% to 95% acetonitrile
experimental readout: logP

COC(=O)Nc1ccc(Nc2nccc(-c3sc(N(C)C)nc3C(F)(F)F)n2)cc1 | 3.04*
CN(C)c1nc(C(F)(F)F)c(-c2ccnc(Nc3ccc4c(c3)OC(F)(F)O4)n2)s1 | 4.72*
Cc1nc(N(C)C)sc1-c1ccnc(Nc2cccc([N+](=O)[O-])c2)n1 | 2.34*
CC(=O)c1cccc(Nc2nccc(-c3sc(N(C)C)nc3C)n2)c1 | 1.89*

---

- protocol summary: logP determination by retention times (calibration with alkan-2-ones)
- test context: logP, values marked *: HPLC on reversed-phase C 18, 40° C., mobile phase 0.1% aqueous formic acid and acetonitrile, linear gradient 10% to 95% acetonitrile
experimental readout: chromatographic logP

CCc1nc(C)c(-c2nc(Nc3cccc(Cl)c3)ncc2Br)s1 | 4.36
CC(=O)c1cccc(Nc2nccc(-c3sc(C(C)(C)C)nc3C)n2)c1 | 3.66
CCc1nc(C)c(-c2nc(Nc3ccccc3)ncc2Cl)s1 | 3.78
Cc1nc(C)c(-c2nc(Nc3cccc(Cl)c3)ncc2Cl)s1 | 3.86
Cc1nc(C(C)C)sc1-c1ccnc(Nc2cccnc2)n1 | 1.51

---

- protocol summary: logP determination by retention times (calibration with alkan-2-ones)
- test context: logP, * HPLC reversed-phase C18, 40° C., mobile phase 0.1% aqueous formic acid and acetonitrile, linear gradient 10% to 95% acetonitrile
experimental readout: chromatographic logP

Cc1nc(C(F)(F)F)c(-c2ccnc(Nc3ccc(N(C)C)c(Cl)c3)n2)s1 | 2.88
CCc1nc(C)c(-c2ccnc(Nc3ccc(NC(C)=O)cc3)n2)s1 | 1.88
Cc1nc(C(F)F)c(-c2ccnc(Nc3ccc(CNC(=O)OC(C)(C)C)cc3)n2)s1 | 3.2
Cc1nc(C)c(-c2ccnc(Nc3ccc(F)cc3F)n2)s1 | 2.8
CCc1nc(C)c(-c2ccnc(Nc3ccc(C(=O)NCCOC)cc3)n2)s1 | 2.09

---

- protocol summary: logP determination by retention times (calibration with alkan-2-ones)
experimental readout: chromatographic logP

COc1cc(Nc2nccc(-c3sc(C4CC4)nc3C)n2)cc(OC)c1OC | 2.77
COc1ccc(Nc2nccc(-c3sc(C4CCCCC4)nc3C)n2)cn1 | 3.86
CC(=O)c1cccc(Nc2nccc(-c3sc(NCC4CCCO4)nc3C)n2)c1 (centres unmarked) | 1.82
COCc1nc(C)c(-c2ccnc(Nc3ccc(OC)nc3)n2)s1 | 2.13
Cc1ncsc1-c1ccnc(Nc2cccc(C(F)(F)F)c2)n1 | 3.14

---

Quick reference: chromatographic logP of the listed items.
- protocol summary: logP determination by retention times (calibration with alkan-2-ones)
- test context: logP, values marked *: HPLC on reversed-phase C 18, 40° C., mobile phase 0.1% aqueous formic acid and acetonitrile, linear gradient 10% to 95% acetonitrile
experimental readout: chromatographic logP

COCC(C)Nc1nc(C)c(-c2ccnc(Nc3ccc(S(N)(=O)=O)cc3)n2)s1 (stereo not shown) [Example 864] | 1.49
COCCOc1nc(C)c(-c2ccnc(Nc3cccc([N+](=O)[O-])c3)n2)s1 [Example 911] | 3.08
Cc1nc(NCCO)sc1-c1ccnc(Nc2ccc(F)cc2)n1 [Example 891] | 1.5
COCCOc1nc(C)c(-c2ccnc(Nc3cccc(OC)c3)n2)s1 [Example 914] | 2.92
Cc1nc(C(C)C)sc1-c1nc(Nc2ccccc2)ncc1Cl [Example 903] | 4.27
COCCCNc1nc(C)c(-c2ccnc(Nc3ccc(C(C)=O)cc3)n2)s1 [Example 855] | 1.81
COCCNc1nc(C)c(-c2ccnc(Nc3ccc(F)c(F)c3)n2)s1 [Example 897] | 2.15
CCc1nc(C)c(-c2ccnc(Nc3ccc(F)c(N4CCN(C(C)=O)CC4)c3)n2)s1 [Example 848] | 2.42
COCCOc1nc(C)c(-c2ccnc(Nc3ccccc3)n2)s1 [Example 901] | 3.01
COCCNc1nc(C)c(-c2ccnc(Nc3ccc(Cl)nc3)n2)s1 [Example 872] | 1.71
COCCCNc1nc(C)c(-c2ccnc(Nc3ccc(OC)nc3)n2)s1 [Example 858] | 1.57
COc1ccc(Nc2nccc(-c3sc(C(C)C)nc3C)n2)cc1OC [Example 819] | 2.85
COCCCNc1nc(C)c(-c2ccnc(Nc3cc(OC)c(OC)c(OC)c3)n2)s1 [Example 866] | 1.73
Cc1ccc(Nc2nccc(-c3sc(NCC4CCCO4)nc3C)n2)cc1[N+](=O)[O-] (stereo not shown) [Example 810] | 2.33
CCc1nc(C)c(-c2nc(Nc3cc(OC)c(OC)c(OC)c3)ncc2Br)s1 [Example 905] | 3.29
Cc1nc(C(C)C)sc1-c1nc(Nc2cccc(Cl)c2)ncc1Br [Example 922] | 4.9
Cc1nc(C(C)(C)C)sc1-c1ccnc(Nc2cccc(Cl)c2)n1 [Example 884] | 4.82
Cc1nc(C(C)C)sc1-c1nc(Nc2ccccc2)ncc1Br [Example 904] | 4.32
COCCOc1nc(C)c(-c2ccnc(Nc3ccc(N4CCCC4=O)cc3)n2)s1 [Example 917] | 2.23
